- run.description: qHTS assay to identify small molecule antagonists of the thyroid receptor (TR) signaling pathway - cell viability counter screen (AID 743064); further: nearly all actives have a fitted effect of over 50% in size
- condition.info: GH3.TRE-Luc viability, CellTiter-Fluor, 24 h; series mostly up to 70.3 µM
- Excerpt: National Center for Advancing Translational Sciences [NCATS] NIH Chemical Genomics Center [NCGC] U.S. Environmental Protection Agency [EPA] National Institutes of Environmental Health Sciences [NIEHS] National Toxicology Program [NTP] U.S. Food and Drug Administration [FDA] Thyroid receptor (TR), a nuclear hormone receptor, plays an important role in development, proliferation, differentiation, metabolism, brain function, and cardiovascular system. […]
Records with an inconclusive call do not appear. Calls of active or inactive are those of the source. The call rests on the fitted dose curve; in most records, active means well fitted cell-killing curve with a large enough effect in the repeat runs; inconclusive means weak or mixed curves, or effect the other way; inactive means no such curve, though single readings can be large or run the other way.
Tick one outcome: active, inactive

{"molecule": "COc1ccccc1OCCNCC(O)COc1cccc2[nH]c3ccccc3c12 (centres undefined)", "assigned.class": "active"}

Recorded test call requested for C=CCCCCCCC=C
inactive

Recorded test call requested for CC(C(O)c1ccccc1)N(C)CCOC(c1ccccc1)c1ccccc1 (centres undefined)
active
